Test system: Staphylococcus aureus
Experiment: Minimum inhibitory concentration against growth of Methicillin resistant […] aureus
Type: functional
REPORTED PROPERTY: MIC

MOLECULE: CCC(CC)N[C@H](CC(C)C)C(=O)N[C@H]1C(=O)N[C@@H](CC(N)=O)C(=O)N[C@H]2C(=O)N[C@H]3C(=O)N[C@H](C(=O)N[C@H](C(=O)NCC(=O)O)c4cc(O)cc(O)c4-c4cc3ccc4O)[C@H](O)c3ccc(c(Cl)c3)Oc3cc2cc(c3O[C@@H]2O[C@@H](CO)[C@@H](O)[C@H](O)[C@@H]2O[C@H]2C[C@](C)(Nc3cccnc3)[C@H](O)[C@H](C)O2)Oc2ccc(cc2Cl)[C@H]1O
TARGET UNDER TEST: Staphylococcus aureus
EXPERIMENTAL RESULT: > 10 µg/mL

MOLECULE: CC(C)C[C@H](C(=O)N[C@H]1C(=O)N[C@@H](CC(N)=O)C(=O)N[C@H]2C(=O)N[C@H]3C(=O)N[C@H](C(=O)N[C@H](C(=O)NCC(=O)O)c4cc(O)cc(O)c4-c4cc3ccc4O)[C@H](O)c3ccc(c(Cl)c3)Oc3cc2cc(c3O[C@@H]2O[C@@H](CO)[C@@H](O)[C@H](O)[C@@H]2O[C@H]2C[C@](C)(Nc3cccnc3)[C@H](O)[C@H](C)O2)Oc2ccc(cc2Cl)[C@H]1O)N(CCc1ccccc1)CCc1ccccc1
TARGET UNDER TEST: Staphylococcus aureus
EXPERIMENTAL RESULT: > 10 µg/mL

MOLECULE: CC(C)C[C@@H](N)C(=O)N[C@@H]1C(=O)N[C@@H](CC(N)=O)C(=O)N[C@H]2C(=O)N[C@H]3C(=O)N[C@H](C(=O)N[C@H](C(=O)O)c4cc(O)cc(O)c4-c4cc3ccc4O)[C@H](O)c3ccc(c(Cl)c3)Oc3cc2cc(c3O[C@@H]2O[C@H](CO)[C@@H](O)[C@H](O)[C@H]2O[C@H]2C[C@](C)(N)C(O)[C@H](C)O2)Oc2ccc(cc2Cl)[C@H]1O (some centres undefined)
TARGET UNDER TEST: Staphylococcus aureus
EXPERIMENTAL RESULT: < 0.6 µg/mL

MOLECULE: C/C=C/CN(C/C=C/C)[C@H](CC(C)C)C(=O)N[C@H]1C(=O)N[C@@H](CC(N)=O)C(=O)N[C@H]2C(=O)N[C@H]3C(=O)N[C@H](C(=O)N[C@H](C(=O)NCC(=O)O)c4cc(O)cc(O)c4-c4cc3ccc4O)[C@H](O)c3ccc(c(Cl)c3)Oc3cc2cc(c3O[C@@H]2O[C@@H](CO)[C@@H](O)[C@H](O)[C@@H]2O[C@H]2C[C@](C)(Nc3ccc(Cl)cc3)[C@H](O)[C@H](C)O2)Oc2ccc(cc2Cl)[C@H]1O
TARGET UNDER TEST: Staphylococcus aureus
EXPERIMENTAL RESULT: > 10 µg/mL

Provenance of the data: ChEMBL document CHEMBL1144385
